# assayedSystem: UniProtKB P41145
# Sequence (P41145 whole entry): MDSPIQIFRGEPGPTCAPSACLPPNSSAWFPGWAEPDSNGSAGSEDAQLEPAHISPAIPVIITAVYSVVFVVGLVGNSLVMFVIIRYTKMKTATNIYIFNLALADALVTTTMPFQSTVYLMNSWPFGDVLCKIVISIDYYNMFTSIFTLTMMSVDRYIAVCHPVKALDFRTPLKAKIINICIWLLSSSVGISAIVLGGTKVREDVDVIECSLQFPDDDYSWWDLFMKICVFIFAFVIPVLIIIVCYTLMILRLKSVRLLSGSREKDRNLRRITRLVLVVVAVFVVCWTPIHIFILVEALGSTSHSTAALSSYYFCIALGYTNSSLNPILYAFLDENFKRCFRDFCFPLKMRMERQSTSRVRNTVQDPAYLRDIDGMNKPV
# assayProtocol: κ-opioid receptor [35S]GTPγS functional assay, HEK-293 or CHO cells
# Assay type: biochemical
# Parameters: expressed in transfected cells; host or cells: U-2 OS (in-house membranes)
# appliedConditions: HEK-293 or CHO cells; relative to U69,593
Examples of compounds with documented Emax follow.
parameter: Emax

compound="CN1CC[C@]2(C)c3cc(O)ccc3CC1C2N(C)CCc1ccccc1 (stereo in doubt)" assayedsystem="UniProtKB P41145" measvalue=28.2%
compound=C[C@]12CCN(CC3CC3)[C@H](Cc3ccc(O)cc31)[C@H]2NS(=O)(=O)c1cccc(C(F)(F)F)c1 assayedsystem="UniProtKB P41145" measvalue=40.3%
compound=CN1CC[C@@]2(C)c3cc(O)ccc3C[C@@H]1[C@@H]2NCCc1ccc(S(N)(=O)=O)cc1 assayedsystem="UniProtKB P41145" measvalue=3.5%
compound=CN(C(=O)/C=C/c1ccoc1)[C@H]1C2Cc3ccc(O)cc3[C@@]1(C)CCN2CC1CC1 assayedsystem="UniProtKB P41145" measvalue=77.7%
compound=CN1CC[C@@]2(C)c3cc(O)ccc3C[C@@H]1[C@@H]2N(C)CC1CCN(C(=O)OC(C)(C)C)CC1 assayedsystem="UniProtKB P41145" measvalue=1%
compound=CN1CC[C@]2(C)c3cc(O)ccc3CC1[C@@H]2N1Cc2ccccc2NC1=O assayedsystem="UniProtKB P41145" measvalue=34.7%
compound="CCN(C(=O)/C=C/c1ccoc1)C1C2Cc3ccc(OC)cc3[C@@]1(C)CCN2C (stereo in doubt)" assayedsystem="UniProtKB P41145" measvalue=-1%

* * *

# assayedSystem: μ-opioid receptor (Homo sapiens, UniProt P35372)
# Sequence (P35372 whole entry, species assumed): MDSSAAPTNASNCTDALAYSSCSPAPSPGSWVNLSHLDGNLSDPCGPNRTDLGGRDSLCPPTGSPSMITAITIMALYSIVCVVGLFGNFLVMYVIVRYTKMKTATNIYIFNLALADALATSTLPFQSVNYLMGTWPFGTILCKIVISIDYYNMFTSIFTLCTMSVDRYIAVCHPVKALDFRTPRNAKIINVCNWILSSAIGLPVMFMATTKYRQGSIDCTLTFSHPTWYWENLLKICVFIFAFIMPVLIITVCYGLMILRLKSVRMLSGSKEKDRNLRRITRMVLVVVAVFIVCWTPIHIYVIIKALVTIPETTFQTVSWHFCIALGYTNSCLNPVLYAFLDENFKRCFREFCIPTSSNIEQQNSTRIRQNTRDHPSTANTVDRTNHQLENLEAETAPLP
# assayProtocol: μ-opioid receptor [35S]GTPγS functional assay, HEK-293 or CHO cells
# appliedConditions: read-out: GTPγS μ Emax
parameter: Emax (%)

compound="CN1CC[C@]2(C)c3cc(O)ccc3CC1[C@@H]2COc1cc(C(N)=O)ccn1 [Compound 53]" valueunits=% measvalue=82.7
compound="CN1CC[C@]2(C)c3cc(O)ccc3C[C@@H]1[C@H]2COc1cncc(C(=O)O)c1 [Compound 33]" valueunits=% measvalue=49
compound="COc1ccc2c(c1)[C@@]1(C)CCN(C)C(C2)C1N1CCCC1 (stereo partly shown) [Compound 69]" valueunits=% measvalue=24.3
compound="CN1CC[C@]2(C)c3cc(O)ccc3CC1[C@@H]2COc1cccc(C(=O)O)c1 [Compound 40]" valueunits=% measvalue=25.7
compound="CN1CC[C@]2(C)c3cc(O)ccc3CC1C2N(C)C(=O)Nc1ccc(C(=O)O)cc1 (stereo in doubt) [Compound 46]" valueunits=% measvalue=36.7
compound="CN(C(=O)/C=C/c1ccoc1)[C@@H]1[C@H]2Cc3ccc(O)cc3[C@@]1(C)CCN2CC1CC1 [Compound 77]" valueunits=% measvalue=56.5
compound="COc1ccc2c(c1)[C@@]1(C)CCN(C)C(C2)C1N1CCCC(C(=O)O)C1 (stereo partly shown) [Compound 74]" valueunits=% measvalue=31.7
compound="CN1CC[C@]2(C)c3cc(O)ccc3CC1[C@@H]2CC(=O)Nc1ccc(C(=O)O)cc1 [Compound 32]" valueunits=% measvalue=23
compound="CN1CC[C@]2(C)c3cc(O)ccc3C[C@H]1[C@H]2NCCc1ccc(S(N)(=O)=O)cc1 [Compound 93]" valueunits=% measvalue=92
compound="CN(C(=O)Nc1ccc(C#N)cc1)C1C2Cc3ccc(O)cc3[C@@]1(C)CCN2Cc1ccoc1 (stereo in doubt) [Compound 90]" valueunits=% measvalue=32.7
compound="CN1CC[C@]2(C)c3cc(O)ccc3CC1C2N(C)C(=O)Nc1ccc(C(=O)O)cc1 (stereo in doubt) [Compound 45]" valueunits=% measvalue=17
compound="CN(C(=O)Nc1ccc(C#N)cc1)C1C2Cc3ccc(O)cc3[C@@]1(C)CCN2CCc1ccccc1 (stereo in doubt) [Compound 87]" valueunits=% measvalue=96.3
compound="CN1CC[C@@]2(C)c3cc(O)ccc3C[C@@H]1[C@@H]2N(C)CC1CCN(C(=O)OC(C)(C)C)CC1 [Compound 31]" valueunits=% measvalue=61
compound="COc1ccc2c(c1)[C@@]1(C)CCN(CC3CC3)C(C2)C1N(C)C(=O)/C=C/c1ccoc1 (stereo in doubt) [Compound 57]" valueunits=% measvalue=112
compound="CN1CC[C@]2(C)c3cc(O)ccc3C[C@@H]1[C@H]2N(C)C(=O)c1cccc(C(=O)O)c1 [Compound 47]" valueunits=% measvalue=58.7
compound="CN(C(=O)/C=C/c1ccoc1)[C@H]1C2Cc3ccc(O)cc3[C@@]1(C)CCN2CC1CC1 [Compound 83]" valueunits=% measvalue=92.7
compound="CN1CC[C@@]2(C)c3cc(O)ccc3C[C@@H]1[C@@H]2NCCc1ccc(S(N)(=O)=O)cc1 [Compound 92]" valueunits=% measvalue=100
compound="CC(C)CC(NC(=O)N(C)C1[C@H]2Cc3ccc(O)cc3[C@]1(C)CCN2C)C(=O)O (stereo in doubt) [Compound 76]" valueunits=% measvalue=79.3
compound="CN(C(=O)Nc1ccc(C#N)cc1)[C@@H]1C2Cc3ccc(O)cc3[C@@]1(C)CCN2CC1CC1 [Compound 81]" valueunits=% measvalue=31.2
compound="CN1CC[C@]2(C)c3cc(O)ccc3C[C@@H]1[C@@H]2N(C)C(=O)c1cccc(C(=O)O)c1 [Compound 48]" valueunits=% measvalue=26
compound="CN1CC[C@]2(C)c3cc(O)ccc3C[C@@H]1[C@@H]2N(C)C(=O)c1ccc(C(=O)O)cc1 [Compound 59]" valueunits=% measvalue=76.3
compound="COc1ccc2c(c1)[C@@]1(C)CCN(C)C(C2)[C@@]1(O)c1cccc(-c2nnn[nH]2)c1 [Compound 65]" valueunits=% measvalue=21.7
compound="CN1CC[C@]2(C)c3cc(O)ccc3C[C@@H]1[C@@H]2N(C)C(=O)c1ccccc1 [Compound 39]" valueunits=% measvalue=89.8
compound="CN(C(=O)Nc1ccc(C#N)cc1)[C@H]1C2Cc3ccc(O)cc3[C@@]1(C)CCN2CC1CC1 [Compound 80]" valueunits=% measvalue=92.4
compound="COc1ccc2c(c1)[C@@]1(C)CCN(CC3CC3)[C@H](C2)[C@H]1N(C)CC(=O)O [Compound 73]" valueunits=% measvalue=25
compound="CN1CC[C@]2(C)c3cc(O)ccc3CC1C2N(C)C(=O)NCCC(=O)O (stereo in doubt) [Compound 68]" valueunits=% measvalue=98
compound="CN1CC[C@]2(C)c3cc(O)ccc3CC1[C@@H]2CC(=O)N1CCC[C@H]1C(=O)O [Compound 55]" valueunits=% measvalue=71
compound="COc1ccc2c(c1)[C@@]1(C)CCN(C)C(C2)[C@@H]1c1cccc(OCc2ccccc2)c1 [Compound 61]" valueunits=% measvalue=26.7

* * *

# assayedSystem: μ-opioid receptor (Homo sapiens)
# assayProtocol: μ-opioid receptor [35S]GTPγS functional assay, U-2 OS cells
# Assay type: biochemical
# Parameters: expressed in transfected cells; host or cells: U-2 OS
# appliedConditions: U-2 OS cells; relative to DAMGO; read-out: GTPγS μ Emax
// returns Not fulfilled unless Emax is strictly below 50%, in which case Fulfilled

compound="C[C@]12CCN(CC3CC3)[C@H](Cc3ccc(O)cc31)[C@@H]2NCCc1ccc(S(N)(=O)=O)cc1 [Compound 96]" cat=Fulfilled
compound="CCC[C@@]12CCN(C)C(Cc3ccc(OC)cc31)[C@H]2N(C)C(=O)Nc1ccc(CN)cc1 [Compound 138]" cat=Fulfilled
compound="CN(C(=O)c1ccccc1)[C@@H]1[C@H]2Cc3ccc(O)cc3[C@]1(C)CCN2CC1CC1 [Compound 115]" cat=Fulfilled
compound="CN([C@@H]1[C@H]2Cc3ccc(O)cc3[C@]1(C)CCN2CC1CC1)S(=O)(=O)c1cccc(C(F)(F)F)c1 [Compound 130]" cat=Fulfilled
compound="COc1ccc2c(c1)[C@@]1(C)CCN(C)C(C2)[C@@H]1CNC(=O)Cc1ccc(Cl)c(Cl)c1 [Compound 75]" cat="Not fulfilled"
compound="CN1CC[C@@]2(C)c3cc(O)ccc3C[C@@H]1[C@@H]2N(C)C(=O)Cc1ccccc1 [Compound 118]" cat="Not fulfilled"
compound="CN(C(=O)/C=C/c1ccoc1)[C@@H]1[C@H]2Cc3ccc(O)cc3[C@@]1(C)CCN2CC1CC1 [Compound 77]" cat="Not fulfilled"
compound="CN(C)C(=O)C(CCN1CC[C@]2(C)c3cc(O)ccc3CC1[C@H]2O)(c1ccccc1)c1ccccc1 [Compound 22]" cat="Not fulfilled"
compound="CN1CC[C@]2(C)c3cc(O)ccc3CC1[C@@H]2CC(=O)Nc1ccc(C(=O)O)cc1 [Compound 32]" cat=Fulfilled
compound="CN1CC[C@]2(C)c3cc(O)ccc3CC1C2N(C)C(=O)Cc1ccc(S(C)(=O)=O)cc1 (stereo in doubt) [Compound 27]" cat="Not fulfilled"
compound="C=CC[C@@]12CCN(C)C(Cc3ccc(OC)cc31)[C@@H]2N(C)C(=O)Nc1ccc(C#N)cc1 [Compound 135]" cat="Not fulfilled"
compound="C[C@]12CCN(CC3CC3)[C@H](Cc3ccc(O)cc31)[C@@H]2NS(=O)(=O)c1cccc(C(F)(F)F)c1 [Compound 129]" cat=Fulfilled
compound="C[C@]12CCN(CC3CC3)[C@H](Cc3ccc(O)cc31)[C@H]2NS(=O)(=O)c1cccc(C(F)(F)F)c1 [Compound 128]" cat=Fulfilled
compound="C[C@]12CCN(CC3CC3)[C@H](Cc3ccc(O)cc31)[C@H]2NC(=O)c1ccsc1 [Compound 113]" cat="Not fulfilled"
compound="CN1CC[C@@]2(C)c3cc(O)ccc3C[C@@H]1[C@H]2N(C)C(=O)c1ccc(C(F)(F)F)cn1 [Compound 126]" cat="Not fulfilled"
